- Study Target: GST-Aq-NF-kB (Amphimedon queenslandica, UniProt A9Y5G7 2-389)
- Sequence: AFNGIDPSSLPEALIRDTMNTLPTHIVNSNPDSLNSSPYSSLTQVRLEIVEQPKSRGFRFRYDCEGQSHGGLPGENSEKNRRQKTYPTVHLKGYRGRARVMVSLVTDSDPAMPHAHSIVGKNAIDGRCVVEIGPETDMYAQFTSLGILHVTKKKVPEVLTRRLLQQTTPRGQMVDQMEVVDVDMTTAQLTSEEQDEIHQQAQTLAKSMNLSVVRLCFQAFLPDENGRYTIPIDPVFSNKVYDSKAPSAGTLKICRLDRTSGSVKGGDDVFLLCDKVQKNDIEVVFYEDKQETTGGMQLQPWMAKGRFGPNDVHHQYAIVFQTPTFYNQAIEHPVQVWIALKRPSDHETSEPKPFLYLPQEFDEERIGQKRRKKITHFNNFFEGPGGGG
- Assay Procedure: protein-binding microarray (PBM); PBM: ~300 nM protein, 6 mM HEPES pH 7.8, 80 mM KCl, 0.5 mM EDTA, 0.5 mM EGTA, 6% glycerol, 35 ng/ul poly-dIdC, 1% milk, 1 h, room temperature; high values mean tight binding
- Test Parameters: dsDNA, one strand shown
Field 'label' (enum: MET / NOT MET). Set to MET when binding signal is strictly under 4 z-score; else NOT MET.

{"Sequence Input": "CCGATTAACATCAGGGGAAAAGATGATGTTAATCGGGTCTTGATTCGCTTGACGCTGCTG", "Label Class": "NOT MET"}
{"Sequence Input": "CCGATTAACATCAACTTTCCCCCTGATGTTAATCGGGTCTTGATTCGCTTGACGCTGCTG", "Label Class": "NOT MET"}
{"Sequence Input": "CCGATTAACATCAAGGGGAATACTGATGTTAATCGGGTCTTGATTCGCTTGACGCTGCTG", "Label Class": "NOT MET"}
{"Sequence Input": "CCGATTAACATCACCCTTGGGAATGATGTTAATCGGGTCTTGATTCGCTTGACGCTGCTG", "Label Class": "MET"}
{"Sequence Input": "CCGATTAACATCAACCTTTCCCCTGATGTTAATCGGGTCTTGATTCGCTTGACGCTGCTG", "Label Class": "NOT MET"}
{"Sequence Input": "CCGATTAACATCACGTAAGGGATTGATGTTAATCGGGTCTTGATTCGCTTGACGCTGCTG", "Label Class": "MET"}
{"Sequence Input": "CCGATTAACATCACGGAACTCCCTGATGTTAATCGGGTCTTGATTCGCTTGACGCTGCTG", "Label Class": "NOT MET"}
{"Sequence Input": "CCGATTAACATCAAGTCCCCCCCTGATGTTAATCGGGTCTTGATTCGCTTGACGCTGCTG", "Label Class": "NOT MET"}
{"Sequence Input": "CCGATTAACATCAACGAATTCCCTGATGTTAATCGGGTCTTGATTCGCTTGACGCTGCTG", "Label Class": "MET"}

###

- Study Target: GST-Co-NF-kB (Capsaspora owczarzaki, UniProt F1ARL5 200-546)
- Sequence: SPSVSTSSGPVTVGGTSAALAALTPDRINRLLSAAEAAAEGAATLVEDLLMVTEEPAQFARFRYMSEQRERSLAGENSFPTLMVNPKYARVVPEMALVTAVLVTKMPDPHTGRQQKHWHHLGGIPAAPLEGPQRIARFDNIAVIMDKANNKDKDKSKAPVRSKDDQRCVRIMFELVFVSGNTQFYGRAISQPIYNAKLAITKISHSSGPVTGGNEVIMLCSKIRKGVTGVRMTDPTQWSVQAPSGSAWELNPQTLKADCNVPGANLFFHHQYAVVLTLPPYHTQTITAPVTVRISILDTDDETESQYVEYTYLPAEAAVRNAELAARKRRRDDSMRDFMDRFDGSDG
- Assay Procedure: protein-binding microarray (PBM); PBM: ~300 nM protein, 6 mM HEPES pH 7.8, 80 mM KCl, 0.5 mM EDTA, 0.5 mM EGTA, 6% glycerol, 35 ng/ul poly-dIdC, 1% milk, 1 h, room temperature; Ap Aiptasia and Nv Nematostella (sea anemones) / Co Capsaspora / Aq Amphimedon (sponge) / Dm Drosophila / Hu human; RHD is the Rel homology domain; high values mean tight binding
- Test Parameters: dsDNA, one strand shown
Think of 5 z-score as a floor: if binding signal stands on it or above, it is satisfied; beneath it, not satisfied.

{"Sequence Input": "CCGATTAACATCAAACTTTCCCCTGATGTTAATCGGGTCTTGATTCGCTTGACGCTGCTG", "Label Class": "satisfied"}
{"Sequence Input": "CCGATTAACATCAGGGAAAGGAATGATGTTAATCGGGTCTTGATTCGCTTGACGCTGCTG", "Label Class": "not satisfied"}
{"Sequence Input": "CCGATTAACATCAAGGGAAATTCTGATGTTAATCGGGTCTTGATTCGCTTGACGCTGCTG", "Label Class": "not satisfied"}
{"Sequence Input": "CCGATTAACATCAGGGGAGACCCTGATGTTAATCGGGTCTTGATTCGCTTGACGCTGCTG", "Label Class": "not satisfied"}
{"Sequence Input": "CCGATTAACATCAGGGGAGTACATGATGTTAATCGGGTCTTGATTCGCTTGACGCTGCTG", "Label Class": "not satisfied"}
{"Sequence Input": "CCGATTAACATCAGGGAAAGGTATGATGTTAATCGGGTCTTGATTCGCTTGACGCTGCTG", "Label Class": "not satisfied"}
{"Sequence Input": "CCGATTAACATCAGGGGAAACCATGATGTTAATCGGGTCTTGATTCGCTTGACGCTGCTG", "Label Class": "satisfied"}
{"Sequence Input": "CCGATTAACATCAGGGGGAATAATGATGTTAATCGGGTCTTGATTCGCTTGACGCTGCTG", "Label Class": "satisfied"}
